pIC50: −log10 of the molar value.
This section presents pIC50 values reported for Non-receptor tyrosine-protein kinase TYK2 (Homo sapiens) in the literature.

# MOLECULE, pIC50
measured = [
    ("Oc1cc(CC(F)(F)F)c(-c2nc(NCC3CC3)c3cn[nH]c3n2)cc1F", 5.53),
    ("O=C(O)CCn1cc(Nc2ncc3ccn(C[C@H]4CC[C@H](O)CC4)c3n2)cn1", "> 7.00"),
    ("CCC(CC)n1cc(-c2nc(-c3cnn(C[C@@H](O)CNC)c3)cn3nccc23)cn1", "6.00 to 7.00"),
    ("N#CCC(C1CC1)n1cc(-c2nc(-c3cnn(C4CCC4)c3)cc3nccn23)cn1 (stereo not shown)", "> 8.00"),
]
